Molecular target: recombinant human FLAP protein (Homo sapiens, UniProt P20292)
Sequence (P20292 whole entry): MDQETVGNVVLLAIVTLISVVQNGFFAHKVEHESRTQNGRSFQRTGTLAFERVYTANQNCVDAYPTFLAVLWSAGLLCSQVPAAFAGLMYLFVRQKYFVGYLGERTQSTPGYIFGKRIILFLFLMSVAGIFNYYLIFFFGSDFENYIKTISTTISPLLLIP
Assay: FLAP binding assay (SPA, displacement of [125I]L-691,831)
Conditions: membranes of sf9 cells expressing human FLAP, [125I]L-691,831 probe; read-out: hFLAP binding IC50
Protocol: Compounds are assessed for the ability to bind to FLAP in a binding assay that measures compound-specific displacement of an iodinated (^125I) FLAP inhibitor via a Scintillation Proximity Assay format (adapted from S. Charleson et al., Mol. Pharmacol., 1992, 41, 873-879). Cell pellets produced from sf9 insect cells expressing recombinant human FLAP protein are resuspended in buffer A [15 mM Tris-HCl (pH 7.5), 2 mM MgCl2, 0.3 mM EDTA, 1 mM PMSF]. […]
Measurement Kind: IC50 (µM)
Numbers only; they are read as µM.

In: Quick one: IC50 of Nc1ncc(-c2ccc(C3(C(=O)Nc4cccnn4)CCC3)cc2)cn1 ?
Out: 0.078

In: What about NC(=O)c1ccc(NC(=O)C2(c3ccc(-c4cnc(N)nc4)cc3)CCC2)nc1 ?
Out: 0.00205

In: What about Nc1ncc(-c2ccc(C3(C(=O)Nc4cnccn4)CCC3)cc2)cn1 ?
Out: 0.024

In: What about CN1CCN(c2cc(NC(=O)C3(c4ccc(-c5cnc(N)nc5)cc4)CCC3)ccn2)CC1 ?
Out: 0.0074

====

Molecular target: recombinant human FLAP protein (Homo sapiens, UniProt P20292)
Experiment: FLAP binding assay (SPA, displacement of [125I]L-691,831)
Conditions: membranes of sf9 cells expressing human FLAP, [125I]L-691,831 probe; read-out: hFLAP binding IC50
Measurement Kind: pIC50
Note on pIC50: it is the negative log10 of concentration, concentration in mol/L.

In: // map Nc1ncc(-c2ccc(C3(C(=O)Nc4cc(Cl)cc(Cl)c4)CCOCC3)cc2)cn1 [Example 15] to recorded pIC50 (system: recombinant human FLAP protein (Homo sapiens, UniProt P20292))
Out: 7.63

In: What about Nc1ncc(-c2ccc(C3(C(=O)Nc4cccc(OC(F)(F)F)c4)CCOCC3)cc2)cn1 [Example 21] ?
Out: 7.92

In: What about Cn1ncnc1-c1ccc(NC(=O)C2(c3ccc(-c4cnc(N)nc4)cc3)CCC2)nc1 [Example 103] ?
Out: 8.39

In: What about Cn1nccc1-c1ccc(NC(=O)C2(c3ccc(-c4cnc(N)nc4)cc3)CCOCC2)nc1 [Example 218] ?
Out: 7.49

In: What about N#Cc1cc(NC(=O)C2(c3ccc(-c4cnc(N)nc4)cc3)CCC2)ccn1 [Example 236] ?
Out: 8.46

In: What about CNc1ncc(-c2ccc(C3(C(=O)Nc4cccnc4)CCC3)cc2)cn1 [Example 192] ?
Out: 7.49

In: What about COC(=O)c1ccc(NC(=O)C2(c3ccc(-c4cnc(N)nc4)cc3)CCOCC2)nc1 [Example 146] ?
Out: 7.95

In: What about Nc1ncc(-c2ccc(C3(C(=O)Nc4ccc(-c5ccccc5)cc4)CCOCC3)cc2)cn1 [Example 16] ?
Out: 7.97

In: What about COc1cncc(-c2ccc(NC(=O)C3(c4ccc(-c5cnc(N)nc5)nc4)CCOCC3)nc2)c1 [Example 132] ?
Out: 6.66

In: What about Cc1nc(-c2ccc(NC(=O)C(C)(c3ccc(-c4cnc(N)nc4)cc3)C(C)C)cc2)cs1 (stereo not shown) [Example 117] ?
Out: 8.03

In: What about CC(=O)N1CCc2ccc(NC(=O)C3(c4ccc(-c5cnc(N)nc5)cc4)CCOCC3)cc21 [Example 29] ?
Out: 6.72

In: What about Nc1ncc(-c2ccc(C3(C(=O)Nc4ccc5ccccc5n4)CCOCC3)cc2)cn1 [Example 142] ?
Out: 7.41

In: What about Nc1ncc(-c2ccc(C3(C(=O)Nc4cccc(S(=O)(=O)C(F)(F)F)c4)CCOCC3)cc2)cn1 [Example 44] ?
Out: 6.57

In: What about COc1nc(-c2ccc(C3(C(=O)Nc4ccc(-c5csc(C)n5)cn4)CCOCC3)cc2)cnc1N [Example 181] ?
Out: 6.96

In: What about COc1ccc(-c2ccc(NC(=O)C3(c4ccc(-c5cnc6[nH]ccc6c5)cc4)CCOCC3)nc2)cn1 [Example 168] ?
Out: 8.10

In: What about COc1cncc(-c2ccc(NC(=O)C3(c4ccc(-c5cnc(N)nc5)cc4)CCC3)nc2)c1 [Example 130] ?
Out: 8.82
